The reported measurements were obtained from paper PMC11911254.

- assayExplanation: Concentration of paracetamol and its metabolites in plasma, CSF and brain cortex by LC-MS/MS
- studyConditions: female, Sprague Dawley, rat, CSF, intraperitoneal, Concentration in CSF, non-pregnant adult rats; 30 min after ip paracetamol 15 mg/kg + olanzapine 0.15 mg/kg (PARA+OLZ, n=4); median (IQR)
propertyMeasured: concentration at 30 min (ng/mL)
Please give a number only; it is taken to be in ng/mL.

Read the entry CC(=O)Nc1ccc(O)cc1 [Paracetamol, reference compound] and write its reported concentration at 30 min.
4200

----------
- assayExplanation: Concentration of paracetamol and its metabolites in plasma, CSF and brain cortex by LC-MS/MS
- studyConditions: both, Sprague Dawley, rat, CSF, intraperitoneal, Concentration in CSF, P4 rats; 30 min after ip paracetamol 15 mg/kg + olanzapine 0.15 mg/kg (PARA+OLZ, n=4); median (IQR)
propertyMeasured: concentration at 30 min (ng/mL)
Provide the reading as a plain figure in ng/mL.

Please indicate concentration at 30 min recorded for CC(=O)Nc1ccc(O)cc1 [Paracetamol, reference compound]
5300
